readout_kind: melting point

{"molecule": "CC(=O)Oc1cccc(N2C(=O)C3C4c5ccccc5C(/C=C/[N+](=O)[O-])(c5ccccc54)C3C2=O)c1 (stereo not shown) [Compound 16m]", "val": "246 to 248 °C"}
{"molecule": "O=C1C2C3c4ccccc4C(/C=C/[N+](=O)[O-])(c4ccccc43)C2C(=O)N1c1cccc(Cl)c1 (stereo not shown) [Compound 16k]", "val": "258 to 261 °C"}
{"molecule": "O=C1OC(=O)C2C1C1c3ccccc3C2(/C=C/[N+](=O)[O-])c2ccccc21 (stereo not shown) [Compound 13a]", "val": "244 to 245 °C"}
{"molecule": "C/C(=C\\C12c3ccccc3C(c3ccccc31)C1C(=O)OC(=O)C12)[N+](=O)[O-] (stereo not shown) [Compound 13b]", "val": "256 to 258 °C"}
{"molecule": "C/C(=C\\C12c3ccccc3C(c3ccccc31)C1C(=O)N(c3ccccc3)C(=O)C12)[N+](=O)[O-] (stereo not shown) [Compound 17a]", "val": "263 to 266 °C"}
{"molecule": "Nc1ccc(N2C(=O)C3C4c5ccccc5C(/C=C/[N+](=O)[O-])(c5ccccc54)C3C2=O)cc1 (stereo not shown) [Compound 16n]", "val": "> 300 °C"}
{"molecule": "O=C1C2C3c4ccccc4C(/C=C/[N+](=O)[O-])(c4ccccc43)C2C(=O)N1c1ccc(F)cc1 (stereo not shown) [Compound 16e]", "val": "242 to 243 °C"}
